Data provenance: patent US20260250420A1

Target: T1, human PTK7 on cells (tumor cells endogenously expressing PTK7); CHO-hPTK7, CHO-S-hPTK7 and 293T-hPTK7 … (human, UniProt Q13308 31-1070)
T1 sequence (looked up): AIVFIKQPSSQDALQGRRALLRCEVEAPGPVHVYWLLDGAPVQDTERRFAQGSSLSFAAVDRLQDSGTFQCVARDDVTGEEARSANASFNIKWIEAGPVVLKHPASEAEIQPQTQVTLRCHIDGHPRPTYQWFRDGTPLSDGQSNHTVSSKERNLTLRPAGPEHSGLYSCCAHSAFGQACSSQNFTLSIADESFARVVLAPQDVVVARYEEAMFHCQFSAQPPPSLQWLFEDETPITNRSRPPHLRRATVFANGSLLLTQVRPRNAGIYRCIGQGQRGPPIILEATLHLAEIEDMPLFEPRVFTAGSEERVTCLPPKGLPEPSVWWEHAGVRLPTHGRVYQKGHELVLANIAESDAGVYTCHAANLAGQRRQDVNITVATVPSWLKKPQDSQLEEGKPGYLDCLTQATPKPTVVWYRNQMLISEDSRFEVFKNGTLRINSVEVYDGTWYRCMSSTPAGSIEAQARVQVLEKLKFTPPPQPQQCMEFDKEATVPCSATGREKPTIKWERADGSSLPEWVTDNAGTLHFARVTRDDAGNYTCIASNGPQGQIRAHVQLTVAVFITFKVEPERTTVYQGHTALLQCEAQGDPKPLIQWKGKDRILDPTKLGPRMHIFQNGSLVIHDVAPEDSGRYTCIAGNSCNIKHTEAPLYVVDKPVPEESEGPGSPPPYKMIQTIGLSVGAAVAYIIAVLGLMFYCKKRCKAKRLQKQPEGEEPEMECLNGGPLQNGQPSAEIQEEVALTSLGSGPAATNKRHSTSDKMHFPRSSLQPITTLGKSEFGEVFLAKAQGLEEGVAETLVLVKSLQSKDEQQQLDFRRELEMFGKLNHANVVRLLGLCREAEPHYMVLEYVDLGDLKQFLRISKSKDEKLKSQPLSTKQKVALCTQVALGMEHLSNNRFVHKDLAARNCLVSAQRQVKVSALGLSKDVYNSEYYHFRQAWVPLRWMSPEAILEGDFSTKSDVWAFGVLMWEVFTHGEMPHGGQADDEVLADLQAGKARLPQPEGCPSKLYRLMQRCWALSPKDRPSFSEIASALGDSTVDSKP
Test: cell-based or functional assay
A collection of binders and their measured FADU cell endocytosis activity, EC50
measure: FADU cell endocytosis activity, EC50 (µg/mL)

1. 4E12HZ (anti-human PTK7 humanized antibody) (antibody, human IgG1, kappa, V domains shown, Human IgG1 heavy chain constant region and human Kappa light chain constant region) VH: QVQLVQSGAEVKRPGASVKVSCKTSGYTFTDYAMHWVRQAPGKGLEWIGVISTYYGNVSYNQKFKGRVTMTRDTSTSTVYMELSSLTSEDTAIYYCARGFAYWGQGTLVTVSS VL: DIVITQTELSLPVTPGERASISCRSSKSLQKKDGKTYLNWFLQKPGQSPQLLIYLMSTRASGVSDRFSGSGSGTDFTLKISRVEAEDVGVYYCQQLVEYPFTFGQGTKLEIKR; 0.147
2. Hu24 (PTK7 control antibody, taken from Hu24 in the Patent CN201580030255) (antibody) chain 1: QVQLVQSGPEVKKPGASVKVSCKASGYTFTDYAVHWVRQAPGKRLEWIGVISTYNDYTYNNQDFKGRVTMTRDTSASTAYMELSRLRSEDTAVYYCARGNSYFYALDYWGQGTSVTVSS chain 2: EIVLTQSPATLSLSPGERATLSCRASESVDSYGKSFMHWYQQKPGQAPRLLIYRASNLESGIPARFSGSGSGTDFTLTISSLEPEDFAVYYCQQSNEDPWTFGGGTKLEIK; 0.18
3. 19C2HZ (anti-human PTK7 humanized antibody) (antibody, human IgG1, kappa, V domains shown, Human IgG1 heavy chain constant region and human Kappa light chain constant region) VH: QVTLKESGPTLVKPTQTLTLTCTFSGFSLSTSGMGINWIRQPPGKALEWLALIWWDDDKYYNPSLKNRLTITKDTSKNQVVLTMTNMDPVDTATYYCARSLITTAPSDYWGQGTLVTVSS VL: DIQMTQSPSSLSASVGDRVTITCKASQNVGTAITWYQQRPGKAPKLLIYSASNRYTGVPSRFSGSGSGTDFTLTISNLQPEDLATYFCLQYSDYPLTFGQGTRLEIKR; 0.134
4. 64A10HZ (anti-human PTK7 humanized antibody) (antibody, human IgG1, kappa, V domains shown, Human IgG1 heavy chain constant region and human Kappa light chain constant region; expressed in CHO-S cells) VH: QVQLQESGPGLVKPSETLSLTCTVSGFSLTSYGVYWVRQPPGKGPEWLGVIWTSGNTNYNPSLKSRLTISKDNSKNQVSLKLSSVTAADTAVYYCVKHDGGNYVGVMNYWGQGTLVTVSS VL: EIVMTQSPDFQSVTPKEKVTITCRASQSISDYLHWYQQKPDQSPKLLIKYASQSISGVPSRFSGSGSGSDFTLTINSLEAEDAATYYCQNGHSFPPTFGQGTKLEIKR; 0.147
